Recorded values, source PubChem BioAssay (NCI).

# Test system: U251 CNS
# Assay Text: NCI tumour cell line growth inhibition, 48 h
Dear colleague, classification is by TGI, with ranges listed here: 1 = under 20 µM, 2 = from 20 µM up to 30 µM, 3 = 30 µM and over

                                   molecule  group_label
0  O=C(Cc1nc2ccccc2s1)C(=O)Nc1ccccc1C(F)(F)F            3
1      COC(=O)c1cc(CNCCc2c[nH]c3ccccc23)on1            3
2  CSc1nc(Cl)c2c(n1)Sc1ncnn1C2O (stereo unspecified)            3

Let us examine a further case.
Query block: Field: class (TGI) — entry: O=C1CSC(c2ccc(Cl)cc2)N1c1ccc(-n2c(-c3ccccc3)nc3ccccc3c2=O)cc1 (stereo unspecified)
Result block: 3

* * *

# Tested on: OVCAR-4 ovarian
# Assay Text: NCI tumour cell line growth inhibition, 48 h
Measure Name: log10(TGI) (log10 of the value in µM)
# values: log10(TGI), units µM

Required: log10(TGI), one value per compound below.
1. Nc1cc(N)c2nc(-c3ccccc3)c(Sc3ccc(F)cc3)nc2c1
2. N#CC1=C(N)Oc2c(ccc3ccccc23)C1c1ccccc1Cl (configuration not stated)
3. OB1OCc2ccccc21

Result block:
1.75
1.31
1.97

Required: log10(TGI), one value per compound below.
1. O=c1[nH]c2cccccc-2c1-c1nc2ccccc2[nH]1
2. O=C1/C(=C/c2ccc([N+](=O)[O-])s2)Oc2ccc(Cl)cc21

Result block:
1.72
-0.05

Required: log10(TGI), one value per compound below.
1. COc1ccc(/C(C)=C(\c2ccc(Cl)cc2)c2ccc(OCCN3CCCCC3)cc2)cc1F
2. COCN1C(=O)[C@@H]2C[C@@H](OC/C=C/CBr)CN2C(=O)c2ccccc21

Result block:
[0.95, 1.55]

Required: log10(TGI), one value per compound below.
1. COc1cc2c(cc1C)NC(=O)/C2=C/c1c(Cl)n(C)c2ccccc12
2. O=C(Nc1cccc(Cl)c1)c1cc2cc(N=Nc3ccc(Br)cc3)ccc2oc1=O
3. CN(C)CCCn1c2c(c3ccncc3c1=O)C(=O)c1ccccc1-2

Result block:
1. 1.40
2. 1.95
3. 0.94

Required: log10(TGI), one value per compound below.
1. CNCc1ccc(C)c(NC(=O)c2ccc(Nc3nc(-c4ccccc4)c4ccccc4n3)cc2)c1
2. Cc1ccc(SCN2CCCCC2)cc1 (tested in a mixture with another compound)
3. Cc1nn(-c2ccccc2)c2ncc3c(c12)C(=O)N(Cc1ccccc1)C3=O
4. CN1CCN(Cc2ccc(NC(=O)c3cncc(C#Cc4c(N)ncc5ccc(F)cc45)c3)cc2C(F)(F)F)CC1
5. C=CC(C)(C)c1cc([C@@H]2COc3cc(O)ccc3C2=O)c(O)c(OC)c1OC
6. CN(C)CCCNc1ccc2nnn3c4ccc([N+](=O)[O-])cc4c(=O)c1c23
7. Nc1n[nH]c(=O)c2c1c(Br)cn2C1OC(CO)C(O)C1O (configuration not stated)

Result block:
0.68
1.64
0.74
0.59
1.29
0.59
1.42

Required: log10(TGI), one value per compound below.
1. COc1ccc(/C=C2\CN(Cc3cn(CCCNc4ccnc5cc(Cl)ccc45)nn3)C/C(=C\c3ccc(OC)cc3)C2=O)cc1
2. CC1CCCC2(O1)OC1CC(=O)OC1C1=C2C(=O)c2ccccc2C1=O (configuration not stated)

Result block:
1.45
0.58
